Data origin: patent US20220073617A1

# Lookup of reported kon keyed by entry
# Study target: T1, monovalent hVISTA-ECD (human VISTA extracellular domain with His tail) (human, UniProt Q9H7M9 33-193)
# T1 construct: analyte flowed over captured antibody; also called huVISTA-His
# T1 sequence (Q9H7M9 other isoform, or with tags, fused parts or gaps limits assumed): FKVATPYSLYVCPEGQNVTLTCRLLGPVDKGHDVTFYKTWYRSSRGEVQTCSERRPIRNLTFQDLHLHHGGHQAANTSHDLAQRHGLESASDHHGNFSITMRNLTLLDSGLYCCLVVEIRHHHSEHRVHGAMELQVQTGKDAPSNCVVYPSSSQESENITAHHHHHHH
# Procedure text: SPR, pH 7.4
Give the quantity in M⁻¹ s⁻¹, number only.

Solved cases below.
Binder: P1-065319 (41F11_VH_F100aG VK_A64G) (antibody, V domains shown, Kabat positions; also called P1-065319-1) VH: QVQLVESGGGLVKPGGSLRLSCAASGFTFSDYYMSWIRQAPGKGLEWVSYISNSGSPIYYADSVKGRFTISRDNAKNSLYLQMNSLRAEDTAVYYCARDLPGWYGDLWGRGTLVTVSS VL: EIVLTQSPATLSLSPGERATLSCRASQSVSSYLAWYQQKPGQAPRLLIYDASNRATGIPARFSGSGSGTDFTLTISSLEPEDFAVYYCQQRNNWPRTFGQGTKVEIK
Uom: M⁻¹ s⁻¹
kon: 209000
--
Binder: P1-064526 (41F11_VH_D31E/Y50W/S55E/A60H/Y100E) (antibody, V domains shown, Kabat positions; also called P1-064526-1) VH: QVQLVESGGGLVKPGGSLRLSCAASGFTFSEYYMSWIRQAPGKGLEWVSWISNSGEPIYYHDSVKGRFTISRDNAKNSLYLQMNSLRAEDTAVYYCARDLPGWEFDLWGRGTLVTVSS VL: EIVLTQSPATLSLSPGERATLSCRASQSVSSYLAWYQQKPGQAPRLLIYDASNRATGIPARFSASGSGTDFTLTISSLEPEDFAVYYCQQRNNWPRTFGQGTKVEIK
Uom: M⁻¹ s⁻¹
kon: 555000
--
Binder: P1-064540 (41F11_VH_T28P/Y50W/S55E/A60H/Y100E) (antibody, V domains shown, Kabat positions; also called P1-064540-1) VH: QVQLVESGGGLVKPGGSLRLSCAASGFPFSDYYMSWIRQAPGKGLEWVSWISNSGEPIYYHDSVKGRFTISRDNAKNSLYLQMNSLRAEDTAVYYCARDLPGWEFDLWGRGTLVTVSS VL: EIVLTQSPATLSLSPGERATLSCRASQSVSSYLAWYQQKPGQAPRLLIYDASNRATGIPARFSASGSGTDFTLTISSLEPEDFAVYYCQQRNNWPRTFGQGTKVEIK
Uom: M⁻¹ s⁻¹
kon: 553000
--
Binder: P1-065326 (41F11_VH_D31E/Y50W/S55E/L96E/Y100E VK_A64G) (antibody, V domains shown, Kabat positions; also called P1-065326-1) VH: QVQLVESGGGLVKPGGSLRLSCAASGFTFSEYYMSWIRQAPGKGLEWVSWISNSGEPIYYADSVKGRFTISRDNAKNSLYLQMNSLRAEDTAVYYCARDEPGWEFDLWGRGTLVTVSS VL: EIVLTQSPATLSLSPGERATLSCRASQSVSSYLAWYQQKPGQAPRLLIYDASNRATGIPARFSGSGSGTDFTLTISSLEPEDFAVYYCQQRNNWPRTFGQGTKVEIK
Uom: M⁻¹ s⁻¹
kon: 289000
--
Binder: P1-064486 (41F11_VH_F100aG) (antibody, V domains shown, Kabat positions; also called P1-064486-1) VH: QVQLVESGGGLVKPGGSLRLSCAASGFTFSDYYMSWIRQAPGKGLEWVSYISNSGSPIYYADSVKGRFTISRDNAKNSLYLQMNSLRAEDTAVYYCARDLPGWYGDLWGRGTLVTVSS VL: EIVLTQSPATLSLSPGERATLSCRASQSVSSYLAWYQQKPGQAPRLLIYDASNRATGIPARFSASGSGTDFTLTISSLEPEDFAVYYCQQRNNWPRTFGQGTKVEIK
Uom: M⁻¹ s⁻¹
kon: 223000

Q: // query kon value for entry P1-065333 (41F11_VH_T28P/Y50W/S55E/L96E/Y100E VK_A64G) (antibody, human IgG1, kappa, V domains shown, IgG1.3; also called P1-065333-1; VISTA.4 pH-independent progeny) VH: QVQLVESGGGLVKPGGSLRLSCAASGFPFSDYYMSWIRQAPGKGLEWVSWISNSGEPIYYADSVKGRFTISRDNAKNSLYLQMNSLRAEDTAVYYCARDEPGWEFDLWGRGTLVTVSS VL: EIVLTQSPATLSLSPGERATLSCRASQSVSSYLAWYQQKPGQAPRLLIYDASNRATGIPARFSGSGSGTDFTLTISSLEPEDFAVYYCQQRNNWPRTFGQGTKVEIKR
Result: 278000

Q: // query kon value for entry P1-064480 (41F11_VH_A60H) (antibody, V domains shown, Kabat positions; also called P1-064480-1) VH: QVQLVESGGGLVKPGGSLRLSCAASGFTFSDYYMSWIRQAPGKGLEWVSYISNSGSPIYYHDSVKGRFTISRDNAKNSLYLQMNSLRAEDTAVYYCARDLPGWYFDLWGRGTLVTVSS VL: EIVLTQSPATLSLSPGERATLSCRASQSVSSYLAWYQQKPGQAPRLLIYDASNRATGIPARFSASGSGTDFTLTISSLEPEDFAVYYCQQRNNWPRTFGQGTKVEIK
Result: 320000

Q: // query kon value for entry P1-064516 (41F11_Vk_V29D/A64G/R91T/R96Y) (antibody, V domains shown, also called P1-064516-1) VH: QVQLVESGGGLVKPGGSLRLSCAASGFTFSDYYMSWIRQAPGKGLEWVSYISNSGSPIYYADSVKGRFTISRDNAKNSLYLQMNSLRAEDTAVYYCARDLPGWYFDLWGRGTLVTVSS VL: EIVLTQSPATLSLSPGERATLSCRASQSDSSYLAWYQQKPGQAPRLLIYDASNRATGIPARFSGSGSGTDFTLTISSLEPEDFAVYYCQQTNNWPYTFGQGTKVEIK
Result: 117000

Q: // query kon value for entry P1-065318 (41F11_VH_L96E VK A64G) (antibody, V domains shown, Kabat positions; also called P1-065318-1) VH: QVQLVESGGGLVKPGGSLRLSCAASGFTFSDYYMSWIRQAPGKGLEWVSYISNSGSPIYYADSVKGRFTISRDNAKNSLYLQMNSLRAEDTAVYYCARDEPGWYFDLWGRGTLVTVSS VL: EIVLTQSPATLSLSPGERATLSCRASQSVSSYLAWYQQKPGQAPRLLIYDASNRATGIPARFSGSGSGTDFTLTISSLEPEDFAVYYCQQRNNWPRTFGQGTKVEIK
Result: 109000

Q: // query kon value for entry P1-064534 (41F11_VH_D31E/S35Y/Y50W/S55E/A60H/Y100E/F100aG) (antibody, V domains shown, Kabat positions; also called P1-064534-1) VH: QVQLVESGGGLVKPGGSLRLSCAASGFTFSEYYMYWIRQAPGKGLEWVSWISNSGEPIYYHDSVKGRFTISRDNAKNSLYLQMNSLRAEDTAVYYCARDLPGWEGDLWGRGTLVTVSS VL: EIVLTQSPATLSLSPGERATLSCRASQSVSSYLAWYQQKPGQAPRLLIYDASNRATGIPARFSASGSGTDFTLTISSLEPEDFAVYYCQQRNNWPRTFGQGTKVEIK
Result: 41700
